assay: Half life was evaluated in vivo after intraperitoneal administration; settings: ip
readout: half-life (min)
// units = min; emit number, no label

Query string: Entry under review: Cc1nc2ccc(NC(=O)Nc3ccnc4cccnc34)cc2o1 . Reported half-life?
Result string: 24

---

experiment: Steady state concentration was evaluated; type: ADME
Listed below: Css values for each entry.
The reply should be a number in nM, with the unit left off.

Query string: Endpoint output: Css of CCN(CC)c1ccc(NC(=O)Nc2ccnc3ccccc23)cc1 . Value?
Result string: 700

---

biological target: 5-hydroxytryptamine receptor 2B (Homo sapiens, UniProt P41595)
Sequence (P41595 whole entry): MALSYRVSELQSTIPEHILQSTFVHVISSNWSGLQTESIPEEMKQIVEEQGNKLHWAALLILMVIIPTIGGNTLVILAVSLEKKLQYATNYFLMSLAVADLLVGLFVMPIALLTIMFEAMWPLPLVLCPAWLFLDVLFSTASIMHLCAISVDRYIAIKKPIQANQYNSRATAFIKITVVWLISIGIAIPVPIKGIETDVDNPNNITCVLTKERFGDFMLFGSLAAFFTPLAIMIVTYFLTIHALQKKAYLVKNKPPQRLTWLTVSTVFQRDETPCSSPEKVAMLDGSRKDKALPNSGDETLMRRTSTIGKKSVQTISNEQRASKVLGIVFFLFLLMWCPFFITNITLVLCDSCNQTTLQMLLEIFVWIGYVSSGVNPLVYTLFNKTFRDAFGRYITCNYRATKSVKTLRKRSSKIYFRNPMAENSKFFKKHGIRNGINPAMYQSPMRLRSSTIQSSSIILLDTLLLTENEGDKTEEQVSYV
Below: a set of entries, each annotated with reported pKi.
Bear in mind: pKi is minus log10 of a mol/L concentration; give just that figure.

> print(dat)
                             smiles.input  test.result
1     COc1ccc(NC(=O)Nc2ccnc3ccccc23)cc1Cl         7.80
2       CSc1ccc(NC(=O)Nc2ccnc3ccccc23)cc1         7.50
3   Cc1nc2ccc(NC(=O)Nc3ccnc4cccnc34)cc2o1         5.40
4  CCN(CC)c1ccc(NC(=O)Nc2ccnc3ccccc23)cc1         7.30
5    CN(C)c1ccc(NC(=O)Nc2ccnc3ccccc23)cc1         7.10

Query string: Recall the recorded pKi for Cn1ccc2cc(NC(=O)Nc3ccnc4ccccc34)ccc21 with 5-hydroxytryptamine receptor 2B (Homo sapiens, UniProt P41595) and state it.
Result string: 8.60

Query string: Try this compound next: Cc1cc2cc(NC(=O)Nc3ccnc4ccccc34)ccc2n1C
Result string: 8.40
